Source: patent US20260116991A1

# test_target: T1, human GPC3 on CHO-K1-human GPC3 cells (clone CHOK1-hGPC3.2B5) (human, UniProt P51654 25-554)
# T1 construct: whole, on cells; Stably transfected CHO-K1 clone 2B5
# assay: FACS on CHOK1-hGPC3.2B5 cells;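 also: flow cytometry binding of chimeric antibodies to the cells, read out as mean fluorescence intensity, with the half-maximal concentration derived by curve fitting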
Each record here notes measured Max MFI.
# unit: MFI | format: bare number

In the examples that follow, each entry is paired with its recorded Max MFI.
binder | quantity_kind | assay_result
F1.21.8 human-murine chimeric antibody (antibody, human IgG1, kappa, V domains shown) VH: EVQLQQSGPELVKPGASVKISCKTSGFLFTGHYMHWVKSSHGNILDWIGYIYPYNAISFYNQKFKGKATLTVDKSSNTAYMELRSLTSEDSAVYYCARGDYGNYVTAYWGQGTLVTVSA VL: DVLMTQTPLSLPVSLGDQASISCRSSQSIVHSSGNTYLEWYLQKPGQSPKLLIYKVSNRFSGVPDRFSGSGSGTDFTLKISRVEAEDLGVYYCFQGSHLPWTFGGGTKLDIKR | Max MFI | 10700
F1.2.14 human-murine chimeric antibody (antibody, human IgG1, kappa, V domains shown) VH: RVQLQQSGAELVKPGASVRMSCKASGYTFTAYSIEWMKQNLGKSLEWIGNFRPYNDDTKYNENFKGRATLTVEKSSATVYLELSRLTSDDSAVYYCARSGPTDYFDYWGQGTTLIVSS VL: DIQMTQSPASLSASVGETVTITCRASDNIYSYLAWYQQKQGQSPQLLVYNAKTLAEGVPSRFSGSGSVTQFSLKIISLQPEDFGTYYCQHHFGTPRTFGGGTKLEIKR | Max MFI | 8280
F1.136.7 human-murine chimeric antibody (antibody, human IgG1, kappa, V domains shown) VH: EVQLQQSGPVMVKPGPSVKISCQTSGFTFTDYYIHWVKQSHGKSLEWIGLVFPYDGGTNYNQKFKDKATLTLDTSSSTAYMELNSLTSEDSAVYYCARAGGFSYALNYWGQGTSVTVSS VL: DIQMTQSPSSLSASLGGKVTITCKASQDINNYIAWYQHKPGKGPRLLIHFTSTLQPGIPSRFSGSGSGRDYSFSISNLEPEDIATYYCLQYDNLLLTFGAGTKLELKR | Max MFI | 9540
F4.18.4 human-murine chimeric antibody (antibody, human IgG1, kappa, V domains shown) VH: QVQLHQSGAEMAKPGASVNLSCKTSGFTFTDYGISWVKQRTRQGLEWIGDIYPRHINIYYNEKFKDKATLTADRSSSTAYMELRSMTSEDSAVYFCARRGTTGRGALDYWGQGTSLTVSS VL: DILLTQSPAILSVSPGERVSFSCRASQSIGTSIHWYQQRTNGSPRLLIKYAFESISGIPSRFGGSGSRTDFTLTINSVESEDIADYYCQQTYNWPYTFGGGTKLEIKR | Max MFI | 2370
F1.83.6 human-murine chimeric antibody (antibody, human IgG1, kappa, V domains shown) VH: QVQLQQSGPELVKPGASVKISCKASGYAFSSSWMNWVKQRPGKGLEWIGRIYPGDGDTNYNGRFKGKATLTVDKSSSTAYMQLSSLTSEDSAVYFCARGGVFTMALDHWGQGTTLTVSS VL: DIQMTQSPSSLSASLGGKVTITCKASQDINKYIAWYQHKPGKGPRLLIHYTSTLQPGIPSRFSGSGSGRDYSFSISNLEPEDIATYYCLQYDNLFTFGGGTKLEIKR | Max MFI | 10100

Input line: Return reported Max MFI; argument: F2.55.11 human-murine chimeric antibody (antibody, human IgG1, kappa, V domains shown) VH: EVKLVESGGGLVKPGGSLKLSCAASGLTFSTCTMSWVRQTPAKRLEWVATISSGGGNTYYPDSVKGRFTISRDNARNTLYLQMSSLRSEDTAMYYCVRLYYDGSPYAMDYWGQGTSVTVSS VL: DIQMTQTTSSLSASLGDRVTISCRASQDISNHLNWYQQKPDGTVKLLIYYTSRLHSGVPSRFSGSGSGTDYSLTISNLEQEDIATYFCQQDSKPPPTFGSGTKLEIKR
Output line: 13600

Input line: Follow-up entry: F2.39.2 human-murine chimeric antibody (antibody, human IgG1, kappa, V domains shown) VH: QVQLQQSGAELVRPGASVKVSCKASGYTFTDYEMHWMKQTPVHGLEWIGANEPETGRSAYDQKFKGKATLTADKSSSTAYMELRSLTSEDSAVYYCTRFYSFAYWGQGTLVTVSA VL: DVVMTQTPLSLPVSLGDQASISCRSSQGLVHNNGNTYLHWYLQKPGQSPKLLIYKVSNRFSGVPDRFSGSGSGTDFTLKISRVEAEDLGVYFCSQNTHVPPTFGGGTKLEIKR
Output line: 26500

Input line: Follow-up entry: F4.21.16 human-murine chimeric antibody (antibody, human IgG1, kappa, V domains shown) VH: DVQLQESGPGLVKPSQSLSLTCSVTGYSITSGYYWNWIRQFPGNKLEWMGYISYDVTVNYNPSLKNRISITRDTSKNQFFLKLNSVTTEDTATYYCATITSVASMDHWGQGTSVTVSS VL: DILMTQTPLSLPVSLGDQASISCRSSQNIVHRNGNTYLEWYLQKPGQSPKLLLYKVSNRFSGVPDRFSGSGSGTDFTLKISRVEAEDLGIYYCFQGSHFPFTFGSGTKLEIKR
Output line: 2170

Input line: Follow-up entry: F1.111.11 human-murine chimeric antibody (antibody, human IgG1, kappa, V domains shown) VH: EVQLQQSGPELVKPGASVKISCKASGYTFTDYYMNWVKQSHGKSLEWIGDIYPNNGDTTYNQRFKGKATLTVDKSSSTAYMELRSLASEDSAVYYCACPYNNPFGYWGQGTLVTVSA VL: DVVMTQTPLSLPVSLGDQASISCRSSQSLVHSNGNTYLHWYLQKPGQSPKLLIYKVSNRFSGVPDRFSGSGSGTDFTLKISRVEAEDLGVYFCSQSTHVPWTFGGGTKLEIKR
Output line: 9230

Input line: Follow-up entry: F2.152.3 human-murine chimeric antibody (antibody, human IgG1, kappa, V domains shown) VH: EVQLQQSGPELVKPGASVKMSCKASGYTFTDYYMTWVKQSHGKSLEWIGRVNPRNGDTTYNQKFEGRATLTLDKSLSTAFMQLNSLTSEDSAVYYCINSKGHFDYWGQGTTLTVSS VL: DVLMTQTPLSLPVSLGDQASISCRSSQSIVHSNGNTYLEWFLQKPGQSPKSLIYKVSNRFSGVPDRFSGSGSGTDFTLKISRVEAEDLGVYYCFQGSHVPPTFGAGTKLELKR
Output line: 2830
